Biological target: T1, Human CD100 (human, UniProt Q92854 22-734, limits assumed)
T1 construct: also called SEMA4D; Hu CD100
T1 sequence (looked up): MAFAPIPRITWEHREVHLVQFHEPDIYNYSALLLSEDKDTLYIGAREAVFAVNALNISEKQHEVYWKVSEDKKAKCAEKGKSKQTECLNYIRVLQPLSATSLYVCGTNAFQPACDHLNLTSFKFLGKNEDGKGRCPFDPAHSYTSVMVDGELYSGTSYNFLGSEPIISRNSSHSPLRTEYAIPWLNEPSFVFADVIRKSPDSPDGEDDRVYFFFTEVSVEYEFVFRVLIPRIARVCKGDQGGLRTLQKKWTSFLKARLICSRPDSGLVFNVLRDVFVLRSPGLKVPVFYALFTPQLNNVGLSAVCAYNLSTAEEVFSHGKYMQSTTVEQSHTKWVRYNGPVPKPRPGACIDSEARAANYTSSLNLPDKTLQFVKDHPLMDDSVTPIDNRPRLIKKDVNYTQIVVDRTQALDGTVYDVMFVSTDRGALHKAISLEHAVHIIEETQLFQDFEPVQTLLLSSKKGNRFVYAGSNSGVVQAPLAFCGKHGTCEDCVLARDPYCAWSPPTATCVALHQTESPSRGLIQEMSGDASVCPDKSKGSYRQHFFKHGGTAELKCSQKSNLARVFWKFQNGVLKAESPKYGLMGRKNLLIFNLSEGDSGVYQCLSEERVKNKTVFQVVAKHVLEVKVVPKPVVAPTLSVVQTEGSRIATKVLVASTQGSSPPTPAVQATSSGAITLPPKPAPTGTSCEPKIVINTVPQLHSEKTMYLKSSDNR
Experiment: affinity testing, method and unit not printed in Example 10 (nM as in Table 3)
MEASURED_ATTRIBUTE: Kd (pM)
# value in pM; strip the unit string

Below, each entry is followed by its recorded Kd result.
BINDER | MEASURED_ATTRIBUTE | OBS_VALUE
MAb 2218 (antibody, V domains shown, H1651 mutant VH combined with L284; also called H1651 T59V with L284) VH: QVQLVQSGAEVKKPGSSVKVSCKASGYTFTDYYMDWVRQAPGQGLEWMGRVNPYHGGAVYNQKFKGRVTITADKSTSTAYMELSSLRSEDTAVYYCAREENSYDGYYGMDYWGQGTLVTVSS VL: DIVMTQSPLSLPVSPGEPATINCKSSQSLFNSGNQKNYLAWYLQKPGQPPKLLIYGASTRESGVPDRFSGSGSGTDFTLTISSLQAEDVAVYYCQNDHTYPYTFGQGTKLEIK | Kd | 80
MAb 2207 (antibody, V domains shown, H1651 mutant VH combined with L284; also called H1651 G57Y with L284) VH: QVQLVQSGAEVKKPGSSVKVSCKASGYTFTDYYMDWVRQAPGQGLEWMGRVNPYHGYATYNQKFKGRVTITADKSTSTAYMELSSLRSEDTAVYYCAREENSYDGYYGMDYWGQGTLVTVSS VL: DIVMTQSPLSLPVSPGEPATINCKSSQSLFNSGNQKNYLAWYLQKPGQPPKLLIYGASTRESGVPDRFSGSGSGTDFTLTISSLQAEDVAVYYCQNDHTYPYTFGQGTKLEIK | Kd | 60

Query string: Kindly indicate its recorded Kd. Item: MAb 2224 (antibody, V domains shown, H1651 mutant VH combined with L284; also called H1651 Y60P with L284) VH: QVQLVQSGAEVKKPGSSVKVSCKASGYTFTDYYMDWVRQAPGQGLEWMGRVNPYHGGATPNQKFKGRVTITADKSTSTAYMELSSLRSEDTAVYYCAREENSYDGYYGMDYWGQGTLVTVSS VL: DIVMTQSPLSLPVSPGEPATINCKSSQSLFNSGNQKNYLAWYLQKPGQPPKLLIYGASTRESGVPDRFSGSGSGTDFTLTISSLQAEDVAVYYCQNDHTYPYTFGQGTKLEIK
Result string: 70
